These entries and their values trace back to paper PMC7581251.

Listed here are molecules together with their documented pIC50.
- TEST_TARGET: GSK3α (Homo sapiens, UniProt P49840)
- Sequence (P49840 whole entry): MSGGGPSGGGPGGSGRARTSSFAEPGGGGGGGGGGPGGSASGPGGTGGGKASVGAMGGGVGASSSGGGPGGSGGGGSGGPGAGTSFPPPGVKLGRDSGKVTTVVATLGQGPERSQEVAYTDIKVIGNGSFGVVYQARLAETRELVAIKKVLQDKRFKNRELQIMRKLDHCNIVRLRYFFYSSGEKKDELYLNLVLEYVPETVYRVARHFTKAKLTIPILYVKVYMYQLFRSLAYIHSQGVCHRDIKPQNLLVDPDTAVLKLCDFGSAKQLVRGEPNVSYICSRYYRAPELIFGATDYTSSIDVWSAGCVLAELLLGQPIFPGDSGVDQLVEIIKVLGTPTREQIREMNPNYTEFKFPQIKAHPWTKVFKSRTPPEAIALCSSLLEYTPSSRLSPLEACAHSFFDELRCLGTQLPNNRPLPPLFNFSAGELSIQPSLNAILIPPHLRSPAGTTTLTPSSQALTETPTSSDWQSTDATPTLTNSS
- MEASUREMENT_DESCRIPTION: Z'LYTE kinase assay
- Format: biochemical
- RUN_PARAMETERS: IC50 GSK3α (Z'LYTE), values of main text and Table S3
In simple prose, pIC50 is minus the logarithm base ten of a concentration in moles per litre.

CC(=O)Nc1ncc([N+](=O)[O-])s1 [Nithiamide]: 5.36

Next molecule, please.
Observed pIC50 on GSK3α (Homo sapiens, UniProt P49840), entry c1ccc2[nH]c(-c3cscn3)nc2c1 , equals 4.22
